Hey, just so you know, these numbers are from ChEMBL document CHEMBL4130484.

- System: MCF7
- Experimental protocol: Antiproliferative activity against human MCF7 cells incubated for 72 hrs by MTT assay
- Assay type: functional, cell-based
- Details: MCF7, 72 h
pIC50: −log10 of the molar value.
Think of 5 as a floor: if pIC50 stands on it or above, it is YES; beneath it, NO.

Illustrative cases are given below, each with its answer.
CCN1CCN(c2cc(C)c3cc(NC(=O)c4ccc5ccccc5n4)ccc3n2)CC1 :: YES
CCc1ccc(C(=O)Nc2ccc3nc(N4CCN(CC)CC4)cc(C)c3c2)cc1 :: YES
CCN1CCN(c2cc(C)c3cc(NC(=O)c4cccc(Cl)c4)ccc3n2)CC1 :: YES

Qu. Please tell me: is the compound Cc1cc(N(C)C)nc2ccc(NC(=O)c3ccc(Cl)c(Cl)c3)cc12 at or over 5 in terms of pIC50?
Ans. NO

Qu. Same thing, different compound: Cc1cc(N2CCN(C(C)C)CC2)nc2ccc(NC(=O)c3ccc(Cl)c(Cl)c3)cc12
Ans. YES

Qu. Same thing, different compound: CC(C)c1cc(C(=O)N2Cc3ccc(CN4CCN(C)CC4)cc3C2)c(O)cc1O
Ans. YES
